FYI, the data here is from patent US20250115597A1.

Biological target: Ba/F3-FL-TYK2-P760L cells (Homo sapiens, UniProt P29597, P760L, cells depend on it)
Construct: BaF3-FL-T2P760L (nM)
Sequence (P29597 whole entry P760L): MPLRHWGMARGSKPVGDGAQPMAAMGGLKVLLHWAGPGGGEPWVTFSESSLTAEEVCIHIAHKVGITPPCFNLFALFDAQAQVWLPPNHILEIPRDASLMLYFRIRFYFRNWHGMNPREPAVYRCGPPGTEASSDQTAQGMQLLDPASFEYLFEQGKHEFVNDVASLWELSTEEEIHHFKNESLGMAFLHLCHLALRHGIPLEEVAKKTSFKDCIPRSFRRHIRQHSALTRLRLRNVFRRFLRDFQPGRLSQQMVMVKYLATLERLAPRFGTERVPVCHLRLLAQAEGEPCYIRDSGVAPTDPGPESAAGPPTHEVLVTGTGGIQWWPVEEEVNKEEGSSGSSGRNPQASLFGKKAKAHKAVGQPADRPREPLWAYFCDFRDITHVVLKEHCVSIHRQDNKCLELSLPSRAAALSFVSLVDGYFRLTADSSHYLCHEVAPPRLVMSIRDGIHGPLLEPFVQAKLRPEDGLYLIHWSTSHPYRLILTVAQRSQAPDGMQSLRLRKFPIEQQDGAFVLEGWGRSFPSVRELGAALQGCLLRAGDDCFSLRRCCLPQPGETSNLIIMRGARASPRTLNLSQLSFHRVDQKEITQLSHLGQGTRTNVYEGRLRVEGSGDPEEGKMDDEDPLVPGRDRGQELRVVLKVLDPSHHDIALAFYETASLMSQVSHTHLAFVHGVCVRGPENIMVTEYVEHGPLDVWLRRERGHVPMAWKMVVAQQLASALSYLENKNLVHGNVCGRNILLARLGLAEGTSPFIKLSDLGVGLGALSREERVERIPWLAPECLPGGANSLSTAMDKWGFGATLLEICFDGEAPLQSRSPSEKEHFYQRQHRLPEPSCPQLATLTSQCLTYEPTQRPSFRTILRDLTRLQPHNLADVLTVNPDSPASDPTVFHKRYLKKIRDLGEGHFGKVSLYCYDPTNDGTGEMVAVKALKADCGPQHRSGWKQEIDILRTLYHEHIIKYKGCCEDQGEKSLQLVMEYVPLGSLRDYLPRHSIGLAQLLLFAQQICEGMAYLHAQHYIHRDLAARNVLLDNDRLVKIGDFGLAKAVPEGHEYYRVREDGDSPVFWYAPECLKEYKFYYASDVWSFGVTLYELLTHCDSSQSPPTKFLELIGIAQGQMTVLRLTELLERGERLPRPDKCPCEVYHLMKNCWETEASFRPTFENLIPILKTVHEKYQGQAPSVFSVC
Assay: Anti-proliferative assay, Ba/F3-FL-TYK2-P760L cells (Cell-Titer Glo)
Type: cell-based
Conditions: 72 h, read-out: BaF3-FL-T2P760L IC50
Below, each of the molecules is paired with its reported GI50 value.
measuredParameter: GI50 (µM)

>>> reportedresult("[2H]C([2H])([2H])NC(=O)c1cnc(Nc2cc(C)c(F)cn2)nc1Nc1cccc(-c2ncn(C)n2)c1OC")
1.93
>>> reportedresult("[2H]C([2H])([2H])NC(=O)c1cnc(Nc2ccc(F)cc2F)nc1Nc1cccc(-c2ncn(C)n2)c1OC")
0.796
>>> reportedresult("[2H]C([2H])([2H])NC(=O)c1cnc(NC(=O)C2CC2)cc1Nc1csc2cnn(CC3CC3(F)F)c(=O)c12 (stereo not shown)")
1.27
>>> reportedresult("[2H]C([2H])([2H])NC(=O)c1cnc2cc1Nc1cc(cc(-c3ncn(C)n3)c1OC)COCc1cc(F)cc(n1)N2")
0.0611

====

// reported log10 of GI50 per item
Biological target: Ba/F3-FL-TYK2-P760L cells (Homo sapiens, UniProt P29597, P760L, cells depend on it)
Construct: BaF3-FL-T2P760L (nM)
Experiment: Anti-proliferative assay, Ba/F3-FL-TYK2-P760L cells (Cell-Titer Glo)
Type: cell-based
Conditions: 72 h, read-out: BaF3-FL-T2P760L IC50
measuredParameter: log10 of GI50 (log10 of the value in nM)

>>> reportedresult("[2H]C([2H])([2H])NC(=O)c1cnc(Nc2ccc(Cl)cc2)nc1Nc1cccc(-c2ncn(C)n2)c1OC")
1.85
>>> reportedresult("[2H]C([2H])([2H])NC(=O)c1nnc2cc1Nc1cc(cc(-n3cnc(C)n3)c1OC)COCc1nc(ccc1F)N2")
2.03
>>> reportedresult("CCn1ncc2ccc(Nc3cc(NC(=O)C4CC4)ncc3Cl)c(OC)c21")
3.68
>>> reportedresult("[2H]C([2H])([2H])NC(=O)c1cnc(Nc2ccn(C)n2)cc1Nc1nn(C)c2ccn(CC)c(=O)c12")
3.10
>>> reportedresult("[2H]C([2H])([2H])NC(=O)c1cnc(NC(=O)C2CC2)cc1Nc1ccc2cnn(C)c2c1OC")
1.84
>>> reportedresult("[2H]C([2H])([2H])NC(=O)c1cnc(NC(=O)C2CC2)cc1Nc1csc2cnn(CC(C)OC)c(=O)c12 (stereo not shown)")
3.28

====

Molecular target: Ba/F3-FL-TYK2-P760L cells (Homo sapiens, UniProt P29597, P760L, cells depend on it)
Construct: BaF3-FL-T2P760L (nM)
Assay: Anti-proliferative assay, Ba/F3-FL-TYK2-P760L cells (Cell-Titer Glo)
Format: cell-based
Settings: 72 h, read-out: BaF3-FL-T2P760L IC50
measuredParameter: GI50 (nM)

>>> reportedresult("[2H]C([2H])([2H])NC(=O)c1cnc(NC(=O)C2CC2)cc1Nc1cn(C)c2ccn(CC=C)c(=O)c12")
147
>>> reportedresult("[2H]C([2H])([2H])NC(=O)c1cnc(NC(=O)C2CC2)cc1Nc1cn(CCOC)c2ccn(CC)c(=O)c12")
368
>>> reportedresult("[2H]C([2H])([2H])NC(=O)c1cnc(NC(=O)C2CC2)cc1Nc1cn(CC)c2ncn(CC(F)(F)F)c(=O)c12")
244
>>> reportedresult("[2H]C([2H])([2H])NC(=O)c1cnc(NC(=O)C2CC2)cc1Nc1cn(CC2CC2)c2ncn(CC)c(=O)c12")
74.5
>>> reportedresult("[2H]C([2H])([2H])NC(=O)c1cnc(NC(=O)C2CC2)cc1Nc1ccn2ncc(CC#N)c2c1OC")
84.7
>>> reportedresult("[2H]C([2H])([2H])NC(=O)c1cnc(Nc2cccc(C(F)(F)F)n2)nc1Nc1cccc(-c2ncn(C)n2)c1OC")
1180
>>> reportedresult("[2H]C([2H])([2H])NC(=O)c1nnc2cc1Nc1cc(cc(-c3ncc(F)cn3)c1OC)COCc1nc(ccc1F)N2")
213
>>> reportedresult("CNC(=O)c1cnc2nc1Nc1cc(cc(-c3ncn(C)n3)c1OC)COCc1cccc(c1)N2")
499
>>> reportedresult("[2H]C([2H])([2H])NC(=O)c1cnc(NC(=O)C2CC2)cc1Nc1cn(C)c2ccn(C(C)C(F)(F)F)c(=O)c12 (single isomer, unassigned) [Example 190B]")
327
>>> reportedresult("CNC(=O)c1nnc(NC(=O)C2CC2)cc1Nc1csc2ccn(C)c(=O)c12")
50.9
>>> reportedresult("[2H]C([2H])([2H])NC(=O)c1cnc(NC(=O)C2CC2)cc1Nc1ccc2nn(C)c(CC)c2c1OC")
1700
>>> reportedresult("[2H]C([2H])([2H])NC(=O)c1cnc(NC(=O)C2CC2)cc1Nc1ccc2cnn(C([2H])([2H])C([2H])([2H])[2H])c2c1OC([2H])([2H])[2H]")
61.4
>>> reportedresult("[2H]C([2H])([2H])NC(=O)c1cnc(NC(=O)C2CC2)cc1Nc1ccc2cnn(C(C)C#N)c2c1OC (single isomer, unassigned) [Example 249A]")
495
>>> reportedresult("[2H]C([2H])([2H])NC(=O)c1cnc(NC(=O)C2CC2)cc1Nc1ccc2cnn(C([2H])([2H])[2H])c2c1OC")
82.4
>>> reportedresult("[2H]C([2H])([2H])NC(=O)c1cnc(NC(=O)CC)cc1Nc1ccc2cnn(CC)c2c1OC")
564
>>> reportedresult("[2H]C([2H])([2H])NC(=O)c1cnc(Nc2ccc(F)cn2)cc1Nc1cn(C)c2c(F)cn(CC(F)(F)F)c(=O)c12")
34.8
>>> reportedresult("[2H]C([2H])([2H])NC(=O)c1cnc(NC(=O)C2CC2)cc1Nc1csc2c(Cl)cn(C([2H])([2H])[2H])c(=O)c12")
147
>>> reportedresult("[2H]C([2H])([2H])NC(=O)c1cnc2cc1Nc1cc(cc(-c3ncn(C)n3)c1OC)COCc1nc(ccc1F)N2")
42.1
>>> reportedresult("CNC(=O)c1cnc(NC(=O)C2CC2)cc1Nc1cn(C)c2c(F)cn(C)c(=O)c12")
330
>>> reportedresult("[2H]C([2H])([2H])NC(=O)c1nnc2cc1Nc1cc(cc(-c3ncn(C)n3)c1OC)COCc1cccc(n1)N2")
42.1
>>> reportedresult("CNC(=O)c1cnc(NC(=O)C2CC2)cc1Nc1csc2c(C)cn(C)c(=O)c12")
267
>>> reportedresult("CNC(=O)c1cnc(Nc2ccc(F)cn2)cc1Nc1csc2ccn(C)c(=O)c12")
23.6
>>> reportedresult("[2H]C([2H])([2H])NC(=O)c1cnc2cc1Nc1cc(cc(-c3ncn(C4CC4)n3)c1OC)COCc1nc(ccc1F)N2")
38.7
>>> reportedresult("[2H]C([2H])([2H])NC(=O)c1cnc(NC(=O)C2CC2)cc1Nc1ccc2cnn(C(C)C)c2c1OC([2H])([2H])[2H]")
394
>>> reportedresult("CCn1cc(Nc2cc(NC(=O)C3CC3)ncc2C(=O)NC)c2c(=O)n([C@@H](C)C(F)(F)F)cnc21 (single isomer, unassigned) [Example 254B]")
934
>>> reportedresult("CNC(=O)c1cnc(NC(=O)C2CC2)cc1Nc1cccc(OC2CCOCC2)c1OC")
6410
>>> reportedresult("CNC(=O)c1cnc(NC(=O)C2CC2(F)F)nc1Nc1cccc(-c2ncn(C)n2)c1OC (stereo not shown)")
2040
